# Tested on: MCF10A
# Test Name: one-nucleolus phenotype percent effect (relative to siNT 0% and siNOL11 100%); higher = more cells with one nucleolus (ribosome biogenesis inhibition)
# Reported Conditions: 20 nM; 72 h
Listed here are sequences together with their documented one-nucleolus phenotype percent effect.
Give just the number in %; leave the unit off.

See these solved cases before continuing.
UCGGGCCUGGGGUUGGGGGAGC [hsa-miR-6749-5p]	-10.1
AGUAGAGAGGAAAAGUUAGGGUC [hsa-miR-6832-5p]	-10.8
UCUAGUGCGGGCGUUCCCG [hsa-miR-6080]	-6.26
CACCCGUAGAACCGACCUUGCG [hsa-miR-99b-5p]	21.8
CGUCAACACUUGCUGGUUUCCU [hsa-miR-505-3p]	22.4

query: Hi! What's the reported one-nucleolus phenotype percent effect for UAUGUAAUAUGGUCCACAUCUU [hsa-miR-380-3p] on MCF10A?
result: 0.458

query: Hi! What's the reported one-nucleolus phenotype percent effect for GGUGGUUGAGGCUGCAGUAAGU [hsa-miR-1273g-5p] on MCF10A?
result: -13.4

query: Hi! What's the reported one-nucleolus phenotype percent effect for CAGGAAGGAGACAGGCAGUUCA [hsa-miR-6876-5p] on MCF10A?
result: 10.4

query: Hi! What's the reported one-nucleolus phenotype percent effect for UUGUGAAGAAAGAAAUUCUUA [hsa-miR-3611] on MCF10A?
result: 12.5

query: Hi! What's the reported one-nucleolus phenotype percent effect for CAGAUCAUGGGACUGUCUCAG [hsa-miR-5694] on MCF10A?
result: -16.1

query: Hi! What's the reported one-nucleolus phenotype percent effect for GCUGGUGCAAAAGUAAUGGCGG [hsa-miR-548q] on MCF10A?
result: 46

query: Hi! What's the reported one-nucleolus phenotype percent effect for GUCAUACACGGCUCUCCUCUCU [hsa-miR-485-3p] on MCF10A?
result: -9.37

query: Hi! What's the reported one-nucleolus phenotype percent effect for GUGAGUGUGGAUCCUGGAGGAAU [hsa-miR-4658] on MCF10A?
result: -8.09

query: Hi! What's the reported one-nucleolus phenotype percent effect for CUCCCCGGCCUCUGCCCCCAG [hsa-miR-6763-3p] on MCF10A?
result: -28.1
